# PROTOCOL: chemical genetic growth profiling, strain panel (AID 1159580);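 note: tested at 20 µM; growth read once vehicle control cultures reached saturation at 30 °C; lower values mean less growth of the strain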
# RUN_CONDITIONS: S. cerevisiae deletion strains, growth OD, locus YML032C, strain rad52, active compounds read low
About 2,000 (36%) of roughly 5,500 compounds were called active. About 18% were inconclusive and are not listed. Some of the results follow.
Output Condition met for records whose normalized growth is lower than 1, Condition not met for records at or above 1.

{"columns": ["SMILES_ENTRY", "GROUP_LABEL"],
 "data": [
  ["CNNC", "Condition met"],
  ["Nc1ccc(S(=O)(=O)NC(=O)c2ccccc2)cc1", "Condition not met"]
]}

Continue with the next compound.
Please state whether normalized growth is below 1 for O=C(O)c1cccnc1 Condition not met
